Provenance of the data: patent US20210388087A1

# assayTarget: T1, human CD137-Fc (human, biotin-labeled)
# T1 construct: if 90 already holds the Fc, drop the second piece; also called biotin-labeled human CD137 fused to human IgG1 Fc fragment; biotin-human CD137-Fc; not shown: human IgG1 Fc fragment
# assayProtocol: bead ELISA on biotin-human CD137-Fc with 125 pmol/well free CD3e peptide as competitor;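 also: Streptavidin-coated magnetic beads in blocking buffer as the capture surface, well signal read as fluorescence 2 min after adding APS-5 substrate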
Assign YES to entries whose ELISA signal meets or exceeds 3000; assign NO to the rest.

## Task ELISA signal >= 3000 for anti-human CD137 antibody described in WO2005/035584A1 (abbreviated as B) (antibody, V domains shown, Control antibody; also called control anti-CD137 antibody) VH: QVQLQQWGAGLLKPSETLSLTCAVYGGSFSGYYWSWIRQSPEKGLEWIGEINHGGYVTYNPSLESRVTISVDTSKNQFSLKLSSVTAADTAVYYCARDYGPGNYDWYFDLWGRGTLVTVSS VL: EIVLTQSPATLSLSPGERATLSCRASQSVSSYLAWYQQKPGQAPRLLIYDASNRATGIPARFSGSGSGTDFTLTISSLEPEDFAVYYCQQRSNWPPALTFGGGTKVEIK ?
## Result YES

## Task ELISA signal >= 3000 for dBBDu173 (antibody, V domains shown, Human IgG1; light chain GLS3000 (kappa)) VH: QVQLVESGGGLVQPGRSLRLSCAASGFTFSNAWMHWVRQAPGKGLEWVAQIKDKGNLYAAYYAPSVKGRFTISRDDSKNSIYLQMNSLKTEDTAVYYCHYVHYASAGGGLSAYGVDAWGQGTTVTVSS VL: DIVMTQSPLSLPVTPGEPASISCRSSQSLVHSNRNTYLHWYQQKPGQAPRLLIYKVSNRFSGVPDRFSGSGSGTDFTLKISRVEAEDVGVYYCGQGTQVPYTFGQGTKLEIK ?
## Result NO

## Task ELISA signal >= 3000 for dBBDu197 (antibody, V domains shown, Human IgG1; light chain GLS3000 (kappa)) VH: QVQLVESGGGLVQPGRSLRLSCAASGFTFSNAWMHWVRQAPGKGLEWVAQIKDRSNAYAAYYAPSVKGRFTISRDDSKNSIYLQMNSLKTEDTAVYYCHYVHYASASTVLPAFGVDAWGQGTTVTVSS VL: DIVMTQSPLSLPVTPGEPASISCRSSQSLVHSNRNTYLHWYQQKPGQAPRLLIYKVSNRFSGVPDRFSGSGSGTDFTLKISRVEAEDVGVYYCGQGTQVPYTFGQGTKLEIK ?
## Result NO

## Task ELISA signal >= 3000 for dBBDu167 (antibody, V domains shown, Human IgG1; light chain GLS3000 (kappa)) VH: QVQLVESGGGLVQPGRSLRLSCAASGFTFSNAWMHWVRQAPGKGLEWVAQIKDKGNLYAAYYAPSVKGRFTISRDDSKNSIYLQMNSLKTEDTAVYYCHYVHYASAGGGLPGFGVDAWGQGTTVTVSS VL: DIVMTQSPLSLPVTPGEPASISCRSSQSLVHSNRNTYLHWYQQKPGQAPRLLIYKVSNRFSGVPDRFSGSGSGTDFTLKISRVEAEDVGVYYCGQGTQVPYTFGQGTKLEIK ?
## Result NO

## Task ELISA signal >= 3000 for Du115/DUL008 (antibody, V domains shown) VH: QVQLVESGGGLVQPGRSLRLSCAASGFTFSNAWMHWVRQAPGKGLEWVAQIKDKANSYNTYYAPSVKGRFTISRDDSKNSIYLQMNSLKTEDTAVYYCRYVHYGSSYGFLFAGYGVDAWGQGTTVTVSS VL: DIVMTQSPLSLPVTPGEPASISCQSSEELLHANRKTYLHWYQQKPGQAPRLLIYKVQNRFSGVPDRFSGSGSGTDFTLKISRVEAEDVGVYYCAQGTATPFTFGQGTKLEIK ?
## Result NO
